Attribution: ChEMBL document CHEMBL1136962

- measurement protocol: AUC (0 to 6 hrs) in Wistar rat at 0.1 mg/kg, po
- Assay type: ADME, organism-based
- Design: time < 6 hr, dose 0.1 mg/kg, route oral
- recorded conditions: plasma

{"molecule": "O=C(c1ccccc1)c1ccc2n1CCC2C(=O)O (stereo unspecified)", "AUC(0-t) at 6 h, ng·h/mL": 855}

---

- measurement protocol: Half life in Wistar rat at 0.1 mg/kg, po
- Assay type: ADME, organism-based
- Set-up: dose 0.1 mg/kg, route oral
- recorded conditions: in vivo

{"molecule": "O=C(c1ccccc1)c1ccc2n1CCC2C(=O)O (stereo unspecified)", "half-life / h": 1.65}

---

- measurement protocol: Stability in rat plasma assessed as half life
- Assay type: ADME, cell-free

{"molecule": "O=C(c1ccccc1)c1ccc2n1CC[C@@H]2C(=O)OC[C@H]1OC(O)[C@H](O)[C@@H](O)[C@H]1O (some centres not stated)", "limit qualifier": "=", "half-life / h": 1.5}
{"molecule": "O=C(c1ccccc1)c1ccc2n1CCC2C(=O)O (configuration not stated) [KETOROLAC]", "limit qualifier": ">", "half-life / h": 4}

---

- measurement protocol: Systemic clearance in Wistar rat at 0.1 mg/kg, po
- Format: ADME, organism-based
- Parameters: dose 0.1 mg/kg, route oral
- recorded conditions: in vivo
experimental readout: CL/F (mL/min)

{"molecule": "O=C(c1ccccc1)c1ccc2n1CCC2C(=O)O (stereo unspecified)", "recorded measurement": 1.57}

---

- measurement protocol: Cmax in Wistar rat at 0.1 mg/kg, po
- Assay type: ADME, organism-based
- Parameters: dose 0.1 mg/kg, route oral
- recorded conditions: in vivo
experimental readout: Cmax

{"molecule": "O=C(c1ccccc1)c1ccc2n1CCC2C(=O)O (stereo unspecified)", "recorded measurement": "400 ng/mL"}

---

- measurement protocol: Mean residence time in Wistar rat assessed as time required for 63.2% of administered dose to be eliminated at 0.1 mg/kg, po
- Assay type: ADME, organism-based
- Parameters: dose 0.1 mg/kg, route oral
- recorded conditions: in vivo

{"molecule": "O=C(c1ccccc1)c1ccc2n1CCC2C(=O)O (stereo unspecified)", "MRT / h": 3.1}

---

- measurement protocol: Tmax in Wistar rat at 0.1 mg/kg, po
- Format: ADME, organism-based
- Design: dose 0.1 mg/kg, route oral
- recorded conditions: in vivo
experimental readout: Tmax (h)

{"compound": "O=C(c1ccccc1)c1ccc2n1CCC2C(=O)O (stereo unspecified)", "experimental readout": "Tmax", "unit abbrev": "h", "recorded measurement": 1}

---

- measurement protocol: Elimination half life in Wistar rat at 0.1 mg/kg, po
- Format: ADME, organism-based
- Set-up: dose 0.1 mg/kg, route oral
- recorded conditions: in vivo, read-out: beta t1/2 (converted)

{"molecule": "O=C(c1ccccc1)c1ccc2n1CCC2C(=O)O (stereo unspecified) [KETOROLAC]", "half-life / h": 1.99}
